target_of_assay: Histone-lysine N-methyltransferase EHMT2 (Homo sapiens, UniProt Q96KQ7)
Sequence (Q96KQ7 whole entry): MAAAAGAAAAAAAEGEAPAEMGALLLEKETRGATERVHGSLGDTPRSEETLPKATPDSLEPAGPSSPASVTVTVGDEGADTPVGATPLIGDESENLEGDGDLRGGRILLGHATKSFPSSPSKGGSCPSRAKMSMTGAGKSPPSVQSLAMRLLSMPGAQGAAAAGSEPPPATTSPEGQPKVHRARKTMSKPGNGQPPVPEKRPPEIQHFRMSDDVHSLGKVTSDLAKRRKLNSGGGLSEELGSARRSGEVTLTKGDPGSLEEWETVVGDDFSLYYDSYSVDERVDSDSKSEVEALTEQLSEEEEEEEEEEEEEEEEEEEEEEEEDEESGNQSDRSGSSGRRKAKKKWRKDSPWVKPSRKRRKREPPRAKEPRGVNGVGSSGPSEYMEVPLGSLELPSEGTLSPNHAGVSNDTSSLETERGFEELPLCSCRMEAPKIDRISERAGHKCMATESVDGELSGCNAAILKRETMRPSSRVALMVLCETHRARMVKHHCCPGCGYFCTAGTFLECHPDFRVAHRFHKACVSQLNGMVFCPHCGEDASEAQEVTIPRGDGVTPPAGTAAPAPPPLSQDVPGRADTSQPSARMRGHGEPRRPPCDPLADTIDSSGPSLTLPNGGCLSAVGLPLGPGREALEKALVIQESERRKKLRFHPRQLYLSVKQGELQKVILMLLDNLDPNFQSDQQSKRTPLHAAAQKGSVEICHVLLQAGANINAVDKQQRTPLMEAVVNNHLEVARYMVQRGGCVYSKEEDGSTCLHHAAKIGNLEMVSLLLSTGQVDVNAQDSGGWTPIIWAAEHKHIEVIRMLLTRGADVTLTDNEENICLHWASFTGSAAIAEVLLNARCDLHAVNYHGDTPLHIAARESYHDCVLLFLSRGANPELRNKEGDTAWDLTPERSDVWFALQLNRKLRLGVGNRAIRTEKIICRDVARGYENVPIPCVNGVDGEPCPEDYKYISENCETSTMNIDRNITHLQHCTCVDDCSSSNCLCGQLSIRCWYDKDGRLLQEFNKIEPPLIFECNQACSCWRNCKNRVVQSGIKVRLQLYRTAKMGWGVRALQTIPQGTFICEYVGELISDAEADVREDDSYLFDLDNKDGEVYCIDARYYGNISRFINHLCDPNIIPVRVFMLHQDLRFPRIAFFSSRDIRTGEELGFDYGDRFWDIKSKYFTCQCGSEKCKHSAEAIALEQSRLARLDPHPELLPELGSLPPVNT
assay_protocol: Inhibition of recombinant G9a catalytic SET domain (913 to 1193 residues) (unknown origin) expressed in Escherichia coli BL21 (DE3) codon plus RIL assessed as inhibition of methylation activity using biotin-labeled H3 (1 to 25 residues) as substrate and [3H]-SAM after 2 hrs by scintillation proximity assay
pIC50: −log10 of the molar value.
measure_name: pIC50

Past entries and their recorded results:
CCN1CCC(Nc2nc(N3CCOCC3)nc3cc(OC)c(OC)cc23)CC1 : 6.49
CCCCCCNc1nc(NC2CCN(C)CC2)c2cc(OC)c(OC)cc2n1 : 6.00
CCCCCN(C)c1nc(NC2CCN(C)CC2)c2cc(OC)c(OC)cc2n1 : 6.51
COc1cc2nc(N3CCOCC3)nc(NC3CCN(C)CC3)c2cc1OC : 6.36

[a] COc1cc2nc(C3CCOCC3)nc(NC3CCN(C)CC3)c2cc1OC
[b] CCCCCCN(C)c1nc(NC2CCN(C)CC2)c2cc(OC)c(OC)cc2n1
[c] COc1cc2nc(N3CCOCC3)nc(NC3CCN(C)CC3)c2cc1F
[d] CCCCCCCNc1nc(NC2CCN(C)CC2)c2cc(OC)c(OC)cc2n1
Task: In this exercise, place the 4 molecules in ascending sequence of their recorded pIC50. List the labels, following the order given in the request.
Output: c, a, d, b
